meta.source: patent US20080026996A1

- targetSystem: T1, rat VPAC2 receptor (rat, UniProt P35000 23-437)
- T1 sequence (looked up): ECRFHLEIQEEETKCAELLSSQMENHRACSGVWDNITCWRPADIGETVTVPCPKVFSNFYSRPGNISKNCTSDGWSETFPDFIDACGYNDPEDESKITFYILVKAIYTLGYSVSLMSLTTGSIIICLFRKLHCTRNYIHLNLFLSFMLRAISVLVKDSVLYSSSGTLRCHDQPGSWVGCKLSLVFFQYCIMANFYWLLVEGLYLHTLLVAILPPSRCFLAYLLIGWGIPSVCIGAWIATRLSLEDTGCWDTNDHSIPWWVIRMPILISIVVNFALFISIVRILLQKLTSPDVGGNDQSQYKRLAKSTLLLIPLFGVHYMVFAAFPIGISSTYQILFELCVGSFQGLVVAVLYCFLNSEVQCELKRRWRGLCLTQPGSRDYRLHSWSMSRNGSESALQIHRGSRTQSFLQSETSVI
- experiment: cell-based or functional assay
Where no end group is shown, it is not given here. [ ]: non-standard residue; d: D form. The star is where a group is joined. Hexanoyl = CCCCCC(=O)*; Aib = CC(C)(N)C(=O)O
attributeMeasured: VPAC1/VPAC2 (EC50 ratio)
Hey, just send me the number, nothing else.

These recorded examples may help you get a feel for the data.
INSERT INTO results (binder, readoutnumber) VALUES
  ('Hexanoyl-HSDAVFTDNYTRLR[Aib]QVAA[Aib]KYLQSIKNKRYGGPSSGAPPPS (ends and bridges not checked) [P261]', 200),
  ('MHSDAVFTDNYTRLRKQVAAKKYLQSIKNKRYGGPSSGAPPPS (N-terminal methionine added (M-), also called VPAC2-P104) [P104]', 184),
  ('Hexanoyl-HSDAVFTDNYTRLLAKLALQKYLQSIKNKRYGGPSSGAPPPS (also called VPAC2-P119) [P119]', 32),
  ('Hexanoyl-HSDAVFTDNYTRLR[Aib]QLAA[Aib]KYLQSIKNKGGPSSGAPPPS (ends and bridges not checked) [P292]', 100);

// VPAC1/VPAC2 (EC50 ratio) value for Hexanoyl-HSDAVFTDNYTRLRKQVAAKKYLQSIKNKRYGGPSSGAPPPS (also called VPAC2-P31) [P31] : 174
